Target: mu opioid receptor (Homo sapiens, UniProt P35372)
Sequence (P35372 whole entry): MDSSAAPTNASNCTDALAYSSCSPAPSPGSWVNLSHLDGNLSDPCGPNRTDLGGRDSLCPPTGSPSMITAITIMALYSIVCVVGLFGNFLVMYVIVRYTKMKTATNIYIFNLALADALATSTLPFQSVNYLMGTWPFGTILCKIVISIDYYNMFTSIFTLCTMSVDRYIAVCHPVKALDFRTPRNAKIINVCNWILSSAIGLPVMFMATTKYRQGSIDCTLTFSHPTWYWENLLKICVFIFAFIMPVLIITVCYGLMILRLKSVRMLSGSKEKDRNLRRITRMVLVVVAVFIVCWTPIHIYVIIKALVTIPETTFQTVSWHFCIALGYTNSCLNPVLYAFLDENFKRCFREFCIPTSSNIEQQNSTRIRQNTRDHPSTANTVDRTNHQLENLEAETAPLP
Experiment: opioid receptor binding assay (Ki), mu
Attribute Measured: log10 Ki (log10 of the value in nM)
On a log10 scale: recorded Ki, unit nM.

Data request: Which log10 Ki value belongs to `CC(C)CCNCc1ccc2c(ccn2Cc2ccc(C(N)=O)cc2)c1` ?
Data returned: 1.26

Data request: Which log10 Ki value belongs to `NC(=O)c1ccc(Cn2ccc3cc(CNCCO)ccc32)cc1` ?
Data returned: 2.68

Data request: Which log10 Ki value belongs to `NC(=O)c1ccc(CN2CCc3cc(CNCCc4cccs4)ccc32)cc1` ?
Data returned: 1.13

***
Data request: Which log10 Ki value belongs to `COc1ccc(CCNCc2ccc3c(ccn3Cc3ccc(C(N)=O)cc3)c2)cc1` ?
Data returned: 2.50

Data request: Which log10 Ki value belongs to `CC(C)(C)CCNCc1ccc2c(c1)CCN2Cc1ccc(C(N)=O)cc1` ?
Data returned: 1.31

Data request: Which log10 Ki value belongs to `CC(C)CCNCc1ccc2c(c1)CCN2Cc1ccc(C(N)=O)cc1` ?
Data returned: 1.39
